# protocol description: Maximal tolerated dose in healthy nude mice
# stated conditions: female, athymic (nu/nu), mouse, in vivo, iv; i.v. on 5 consecutive days; determined 24 hr after the last dose; no lethality and body weight loss <20%

compound | MTD at 5 days
CCOC(=O)C(C)(CCC1CCN(C(=O)Oc2ccc3nc4c(c(CC)c3c2)Cn2c-4cc3c(c2=O)COC(=O)C3(O)CC)CC1)C(=O)OCC (stereo not shown) [ATT-11E] | > 40 mg/kg

====

# System: A375-melanoma cells
# protocol description: In vitro cytotoxicity, XTT tetrazolium dye reduction cell viability assay
# Assay type: cell-based
# stated conditions: Homo sapiens, A-375, 24 h, A375 cells, Example 15 / FIG. 14, 24 hours of incubation; read-out: IC50

compound | measured target | IC50
CCc1c2c(nc3ccc(OC(=O)N4CCC(N5CCCCC5)CC4)cc13)-c1cc3c(c(=O)n1C2)COC(=O)[C@]3(O)CC [CPT-11, Irinotecan, reference compound] | A375-melanoma cells | 9 µM
